Target: T1, Ep-CAM (UniProt P16422 24-265, limits assumed)
T1 construct: Amine coupled to a CM5 chip in the Biacore assays
T1 sequence (looked up): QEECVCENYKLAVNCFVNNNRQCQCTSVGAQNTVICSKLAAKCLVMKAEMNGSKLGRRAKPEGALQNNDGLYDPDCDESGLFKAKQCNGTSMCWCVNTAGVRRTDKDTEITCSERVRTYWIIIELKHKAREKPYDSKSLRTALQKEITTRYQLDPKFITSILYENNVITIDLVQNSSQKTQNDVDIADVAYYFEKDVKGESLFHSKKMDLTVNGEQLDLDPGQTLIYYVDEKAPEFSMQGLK
Assay: Biacore, Fab periplasmic extract
assay metric: binding result

// below: answered binders
ING-1 light chain R101S (Fab, V domains shown, Fab, periplasmic extract) VH: QIQLVQSGPELKKPGETVKISCKASGYTFTKYGMNWVKQAPGKGLKWMGWINTYTEEPTYGDDFKGRFAFSLETSASTANLQINNLKSEDTATYFCARFGSAVDYWGQGTSVTVSS VL: DIVMTQAAFSNPVTLGTSGSISCRSSKSLLHSNGITYLYWYLQKPGQSPQLLIYQMSNLASGVPDRFSSSGSGTDFTLRISRVEAEDVGVYYCAQNLELPSTFGGGTKLEMKR :: no binding
ING-1 light chain R101D (Fab, V domains shown, Fab, periplasmic extract) VH: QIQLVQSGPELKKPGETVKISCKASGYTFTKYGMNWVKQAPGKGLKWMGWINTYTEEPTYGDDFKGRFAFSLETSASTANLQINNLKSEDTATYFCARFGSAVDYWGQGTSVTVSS VL: DIVMTQAAFSNPVTLGTSGSISCRSSKSLLHSNGITYLYWYLQKPGQSPQLLIYQMSNLASGVPDRFSSSGSGTDFTLRISRVEAEDVGVYYCAQNLELPDTFGGGTKLEMKR :: no binding
ING-1 light chain L30E (Fab, V domains shown, Fab, periplasmic extract) VH: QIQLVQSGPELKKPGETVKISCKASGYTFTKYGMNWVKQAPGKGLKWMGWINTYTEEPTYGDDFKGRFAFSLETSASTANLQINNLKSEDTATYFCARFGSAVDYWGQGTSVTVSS VL: DIVMTQAAFSNPVTLGTSGSISCRSSKSLEHSNGITYLYWYLQKPGQSPQLLIYQMSNLASGVPDRFSSSGSGTDFTLRISRVEAEDVGVYYCAQNLELPRTFGGGTKLEMKR :: no binding
ING-1 light chain E98S (Fab, V domains shown, Fab, periplasmic extract) VH: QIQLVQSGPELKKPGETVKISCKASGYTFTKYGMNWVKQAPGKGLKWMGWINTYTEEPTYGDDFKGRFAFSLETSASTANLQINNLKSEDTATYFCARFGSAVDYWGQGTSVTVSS VL: DIVMTQAAFSNPVTLGTSGSISCRSSKSLLHSNGITYLYWYLQKPGQSPQLLIYQMSNLASGVPDRFSSSGSGTDFTLRISRVEAEDVGVYYCAQNLSLPRTFGGGTKLEMKR :: no binding

Below: the item to evaluate.
Asked: Which binding result value belongs to ING-1 light chain T36R (Fab, V domains shown, Fab, periplasmic extract) VH: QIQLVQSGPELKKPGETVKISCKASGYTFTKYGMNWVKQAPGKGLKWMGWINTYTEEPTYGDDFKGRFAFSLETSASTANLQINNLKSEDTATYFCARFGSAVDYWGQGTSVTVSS VL: DIVMTQAAFSNPVTLGTSGSISCRSSKSLLHSNGIRYLYWYLQKPGQSPQLLIYQMSNLASGVPDRFSSSGSGTDFTLRISRVEAEDVGVYYCAQNLELPRTFGGGTKLEMKR ?
Given back: no binding
